- test details: folding stability dG unfold from trypsin proteolysis; higher = more stable
quantity measured: folding stability dG unfold (kcal/mol)
State just the number; it will be interpreted in kcal/mol.

Record excerpt, results attached:
sequence text	data value
SAGGSAMKVATLKVGGVDHTVEITPLPDGSYPVTTTAEEGGETTTTVVPKSEVKKLEDLPPEYRLLSAGGSA [r15_629_JUSTAS]	-0.414
SAGGSAGGSKVFTVEELENMTPEEIRALIKKSKKPVIIVAKSEEEKKRAAELLKELGVEVKVLSAGGSAGGS [r12_97_TrROS_Hall]	3.73
SAGGPMKVKVTLIVRDKETGEWKEVEREMTLDELRELLASLPPDAEVFVKIEVDGKTVTLSLEELKALSAGG [r13_254_TrROS_Hall]	3.84
SAGGSAGGMTTTEISTKKLPDGTWATTVTTTTITATNGVPVTTSTPTTIINPGDPSVAIAAALSSAGGSAGG [r6_129_JUSTAS]	0.209

What folding stability dG unfold value was documented for this sequence, SAEEVEIEIEIVIKMSEEEAERLAKELAEELARELGAEIVDVEVEVVEVDGELYVRIRVKIRLPKEELESAG [r14_219_TrROS_Hall] ?
3.47

What folding stability dG unfold value was documented for this sequence, SAGPKELAKQIKEIARELARAFHPNGQPMKMEVEIEPVSIDDENGWVRLKVKIRMPNRPVKFNITIPLKSAG [r5_53_TrROS] ?
2.04

What folding stability dG unfold value was documented for this sequence, SAGGSAGGSAGGIKDVKITEFERHPENNWYEVKISIPNGKPVEIPMNPGQSAEDILDQISAGGSAGGSAGGS [r10_984_TrROS] ?
-0.418
